// provenance: the supplement of paper PMC9170038

test system: K4 kissing-loop RNA reporter; assay: apparent KD of K4 kissing-loop reporter; higher = weaker reporter binding; details: Eterna round: R107; input ligand: FMN 200 uM;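 note: bound reporter read as fluorescence of individual clusters on recovered sequencing chips by microscopy, with normalized cluster intensities fitted with a binding model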
reported.metric: apparent KD of K4 kissing-loop reporter
Remember to put the unit after the number in your answer.

The examples below pair each entry with its known result.
Query: Which apparent KD of K4 kissing-loop reporter is reported for this sequence? AUACAGCGAAGCGCUAGUGAUGUUAGCGAAGGAGCGACUCAGGAGUCAGGUAGGUCGCGCUAAACAGGUUACGAGAGUAACCAGU [Arg A Ex t1]
Result: 142 nM

Query: // lookup apparent KD of K4 kissing-loop reporter for UCUCCAAAGUCGGCCGCCACUCCGGGCCCUAUAAAUGGGCGCAGUGAUGUUGCGGCUAGGCCUCUGAGGACCGGGACUUUGUAGA [Estiorquin]
Result: 75.5 nM

Query: Return reported apparent KD of K4 kissing-loop reporter; argument: UCCUCGAAUCGACCUCGAAAGAGGAUGGAUACCAGAGAAGAAAUUCUCCCUUGGCAGCCAGUGAUGUUGGAACGAGGUAAAUAAA [#SwitchBubble 20 #K4Late]
Result: 508 nM

Query: // query apparent KD of K4 kissing-loop reporter value for entry "UGAUAGGACAGAAGGAGCGGUAGUGAUGUUACCAAAAGAAUAAGGUGUCAAAAGACACCCUGCCAGGUAGGUCGCUGUCCUAUCU"
Result: 97.4 nM

Query: Looking for the measured apparent KD of K4 kissing-loop reporter of ACUUGAGCACAUAGCACACCAAGCAGUAGGUAGGAUAUCCGGCUUAGGAGAAGGACCAUGCAGUGAUGUUGCAUGCUCCUCCAUG [Zaribies] , can you help?
Result: 258 nM

Quick one: give me apparent KD of K4 kissing-loop reporter for each item below, same order please.
1. AAAUAAAGCAGUCACCCAGUGAUGUUGGAAGGAGCGUGCGAAAGCACAGGUAGGUCGCCGAUAAGGACAAAGUCCAGUGGCUGCA [#SwitchBubble 28 #K4Early]
2. ACGACGCAUAGUGAUACCAGCAUUAUAUGAGUGAUGUUCUACCUAAAAUGGUAAUAAUUAUGCCCUUGGCAGCACUAUGCGUCAG [KL-SSTheoB3]
3. AUAUCUGAUAGCAGUGAUGUUGCUUCAGAUACCAGACGAGAUCAUGUCCCUUGGCAGCUGACACGGCACGUGCUAGGUUAGAUGA [Theo A Ex t2]
4. AGGUUUUGAUUAGGAUAUGCACUGAGGAGGAGAAUAUAGUGAUGUUAUAUAAGAGGAAUUAGUAGAGUAGAAGGGAUUGAGGUUU [SSFMNB.T]
5. UGAUACCAGACUGAUACCAGCGAGUGAUGUUUGUUGAUCAUAAGCAGUCAAAGACUGCUUUGCCCUUGGCAGCAGUCUGGUAUCU [#11 K4 Theophylline B Exclusion]
6. GUGGCACGAAAGUGCCACGCAUCCUCUGGCUAGGAUAUCUGGAAACAGAGAAGGAGCUCAUGAGUGAUGUUCAUCUAGAGGAUGC
7. CGCCAGUGAUGUUGGUGCAGCUACCGGGAAGGAGCGCCCAUAAGGGCAGGUAGGUCGCCCGGGCAGUGAUGUUGCCUCAUGCCGC [Exclusion Arginine A GF 22]

Result:
["458 nM", "340 nM", "101 nM", "248 nM", "871 nM", "827 nM", "243 nM"]
